target-or-system: Neuronal acetylcholine receptor subunit alpha-7 (Homo sapiens)
Sequence (P36544 whole entry): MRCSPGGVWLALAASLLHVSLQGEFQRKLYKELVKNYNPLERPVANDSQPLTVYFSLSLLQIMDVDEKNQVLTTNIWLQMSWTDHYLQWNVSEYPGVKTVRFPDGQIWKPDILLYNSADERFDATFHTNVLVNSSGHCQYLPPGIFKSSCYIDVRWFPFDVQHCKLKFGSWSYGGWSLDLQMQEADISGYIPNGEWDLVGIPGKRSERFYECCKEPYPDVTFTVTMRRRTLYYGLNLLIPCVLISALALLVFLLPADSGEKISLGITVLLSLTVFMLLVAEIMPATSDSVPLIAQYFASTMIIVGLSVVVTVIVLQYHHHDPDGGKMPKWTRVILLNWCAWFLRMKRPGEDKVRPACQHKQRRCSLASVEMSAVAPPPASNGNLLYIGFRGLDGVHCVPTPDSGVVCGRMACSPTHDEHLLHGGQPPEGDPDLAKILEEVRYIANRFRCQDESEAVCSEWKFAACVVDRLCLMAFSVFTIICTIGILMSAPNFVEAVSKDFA
assay-procedure: Agonist activity at human recombinant alpha7 nAChR expressed in rat GH3 cells by calcium influx assay
Assay type: functional, cell-based
Hi there, I'd appreciate the recorded Emax for every entry that follows.
Reply numerically in %, unit not repeated.

Summary for this molecule, CN1C(=O)[C@@H](CN2CCCCC2)C[C@H]1c1ccc(Br)cc1 (relative stereo) : Emax is 89

GET /value?item= COc1ccc(/C=C2\CCCN=C2c2cccnc2)c(OC)c1 [GTS-21] &field=Emax returns 71

CN1C(=O)[C@@H](CN2CCCCC2)C[C@H]1c1cccc(Cl)c1 (relative stereo) has a reported Emax of 102

// recorded Emax for CN1C(=O)[C@@H](CN2CCCCC2)C[C@H]1C#Cc1ccc2c(c1)CCO2 (relative stereo) : 80

The recorded Emax for `CN1C(=O)[C@@H](CN2CCCCC2)C[C@H]1c1ccc(-c2ccccc2)cc1` is 61

Form field Emax, entry CN1C(=O)[C@@H](CN2CCCCC2)C[C@H]1c1ccc(-c2ccccc2Cl)s1 (relative stereo) : 79

`CN1CCC[C@H]1c1cccnc1` yielded Emax of 100

COc1ccc([C@@H]2C[C@H](CN3CCCCC3)C(=O)N2C)cc1 (relative stereo) yielded Emax of 124

response.value for CN1C(=O)[C@@H](CN2CCCCC2)C[C@H]1c1nc(-c2ccccc2Cl)c[nH]1 (relative stereo) (field: Emax) = 61

Lookup result for Cc1ccc([C@@H]2C[C@H](CN3CCCCC3)C(=O)N2C)cc1 (relative stereo) ; measured Emax: 114

Emax recorded for this molecule, CN1C(=O)[C@@H](CN2CCCCC2)C[C@H]1c1nc(-c2ccccc2Cl)cn1C (relative stereo) , is 47

Recorded Emax (molecule COc1cccc([C@@H]2C[C@H](CN3CCCCC3)C(=O)N2C)c1 (relative stereo) ): 128

Form field Emax, entry CN1C(=O)[C@@H](CN2CCCCC2)C[C@H]1c1cnc(-c2ccccc2Cl)s1 (relative stereo) : 89

Short answer for `O=C1NC[C@@]2(CN3CCC2CC3)O1` : Emax was 104

The molecule listed as CN1C(=O)[C@@H](CN2CCCCC2)C[C@H]1c1ccc(C2CCCC2)cc1 (relative stereo) has a reported Emax of 28

get_value(item= CN1C(=O)[C@@H](CN2CCCCCC2)C[C@H]1c1ccccc1Cl (relative stereo) , readout=Emax) returns 82

Value of Emax reported for the molecule CN1C(=O)[C@@H](CN2CCCCC2)C[C@H]1C#Cc1ccccc1 (relative stereo) is 104

Per the record, COc1ccccc1[C@@H]1C[C@H](CN2CCCCC2)C(=O)N1C (relative stereo) has Emax of 107

Kindly note the recorded Emax for CN1C(=O)[C@@H](CN2CCCCC2)C[C@H]1c1ccc(C2CCCCC2)cc1 (relative stereo) , which is 60

Reported Emax of CN1C(=O)[C@@H](CN2CCCCC2)C[C@H]1C#Cc1ccc2c(ccn2C)c1 (relative stereo) : 100

Noted for CN1C(=O)[C@@H](CN2CCCCC2)C[C@H]1C#Cc1ccc2occc2c1 (relative stereo) : its Emax reads 90

Sample CN1C(=O)[C@@H](CN2CCCCC2)C[C@H]1c1ccc(-c2ccccc2Cl)cc1 (relative stereo) ; Emax observed: 62

Emax measured on CN1C(=O)[C@@H](CN2CCCCC2)C[C@H]1c1ccc(-c2ccccc2F)cc1 (relative stereo) = 47

Item: `CN1C(=O)[C@@H](CN2CCCCC2)C[C@H]1c1ccccc1Cl` | Emax: 89
